# System: HeLa
# TEST PROTOCOL: Antiproliferative activity against human HeLa cells assessed as reduction in cell viability incubated for 48 hrs by CCk-8 assay
# Format: functional, cell-based
Reported IC50 values are given for each entry in this list.
Express it in µM; write the number only.

{"SMI": "C[C@H]1CCC/C=C/[C@@H]2C[C@H](OC(=O)CCC(=O)OCCCCCCOc3ccc(-c4cc(=S)ss4)cc3)C[C@H]2[C@H](O)/C=C/C(=O)O1", "IC50 [µM]": 25.2}
{"SMI": "C[C@H]1CCC/C=C/[C@@H]2C[C@H](O)C[C@H]2[C@H](OC(=O)CCC(=O)OCCCCOc2ccc(-c3cc(=S)ss3)cc2)/C=C/C(=O)O1", "IC50 [µM]": 0.86}

Notebook: C[C@H]1CCC/C=C/[C@@H]2C[C@H](O)C[C@H]2[C@H](OC(=O)c2ccccc2C(=O)OCCCCOc2ccc(-c3cc(=S)ss3)cc2)/C=C/C(=O)O1 , IC50 read as 26.9

====

# TEST PROTOCOL: Selectivity index, ratio of IC50 for antiproliferative activity against human L02 cells to IC50 for antiproliferative activity against human MDA-MB-231 cells
# Type: toxicity, cell-based
# MEASUREMENT CONTEXT: L02 cells and MDA-MB-231 cells, read-out: Ratio IC50
Listing of recorded selectivity ratio by entry.
Write the value as a bare number.

Recorded results for 5 compounds are shown here.
{"SMI": "C[C@H]1CCC/C=C/[C@@H]2C[C@H](O)C[C@H]2[C@H](OC(=O)CCCC(=O)OCCOc2ccc(-c3cc(=S)ss3)cc2)/C=C/C(=O)O1", "selectivity ratio": 5.3}
{"SMI": "C[C@H]1CCC/C=C/[C@@H]2C[C@H](O)C[C@H]2[C@H](OC(=O)CCCC(=O)OCCCCOc2ccc(-c3cc(=S)ss3)cc2)/C=C/C(=O)O1", "selectivity ratio": 2.69}
{"SMI": "C[C@H]1CCC/C=C/[C@@H]2C[C@H](O)C[C@H]2[C@H](OC(=O)CCCC(=O)Oc2ccc(-c3cc(=S)ss3)cc2)/C=C/C(=O)O1", "selectivity ratio": 2.57}
{"SMI": "C[C@H]1CCC/C=C/[C@@H]2C[C@H](O)C[C@H]2[C@H](OC(=O)CCC(=O)Oc2ccc(-c3cc(=S)ss3)cc2)/C=C/C(=O)O1", "selectivity ratio": 6.06}
{"SMI": "C[C@H]1CCC/C=C/[C@@H]2C[C@H](O)C[C@H]2[C@H](OC(=O)CCCC(=O)OCCCCCCOc2ccc(-c3cc(=S)ss3)cc2)/C=C/C(=O)O1", "selectivity ratio": 6.35}

For C[C@H]1CCC/C=C/[C@@H]2C[C@H](O)C[C@H]2[C@H](OC(=O)CCC(=O)OCCCCOc2ccc(-c3cc(=S)ss3)cc2)/C=C/C(=O)O1 the compound record lists selectivity ratio as 3.28

Input C[C@H]1CCC/C=C/[C@@H]2C[C@H](O)C[C@H]2[C@H](O)/C=C/C(=O)O1 . Output selectivity ratio: 1.74

Value of measured selectivity ratio for the entry C[C@H]1CCC/C=C/[C@@H]2C[C@H](O)C[C@H]2[C@H](OC(=O)CCC(=O)OCCCCCCOc2ccc(-c3cc(=S)ss3)cc2)/C=C/C(=O)O1 : 2.31

The compound identified as C[C@H]1CCC/C=C/[C@@H]2C[C@H](O)C[C@H]2[C@H](OC(=O)c2ccccc2C(=O)Oc2ccc(-c3cc(=S)ss3)cc2)/C=C/C(=O)O1 registered its selectivity ratio at 2.64

Measured selectivity ratio, C[C@H]1CCC/C=C/[C@@H]2C[C@H](O)C[C@H]2[C@H](OC(=O)CCC(=O)OCCOc2ccc(-c3cc(=S)ss3)cc2)/C=C/C(=O)O1 : 6.97
